- Tested on: MalMe3M
- ASSAY_NAME: MTT assay (anti-proliferative activity)
- Format: cell-based
- SETUP_CONDITIONS: Homo sapiens, Malme-3M, 96 h continual exposure, read-out: IC 50 MalMe3M
MEASUREMENT_TYPE: pIC50
Note: pIC50 values are expressed as the negative base-10 logarithm of concentration in M.

Illustrative cases are given below, each with its answer.
compound="COc1cc2c(c(O)c1OC)C(=O)OC(C)C2 (racemic) [ALM-1, Racemic (±)—Kigelin]" measurement_type=pIC50 observed_value=3.15
compound="C[C@H]1Cc2cccc(O)c2C(=O)O1 [ALM-10, (3S)-mellein]" measurement_type=pIC50 observed_value=3.44
compound="CC(=O)c1ccc2c(c1O)C(=O)OC(C)C2 (racemic) [ALM-29, Racemic ortho-acetylmellein]" measurement_type=pIC50 observed_value=3.47
compound="COc1cc(O)c2c(c1)CC(C)OC2=O (racemic) [ALM-8]" measurement_type=pIC50 observed_value=3.18
compound="COc1ccc(I)c2c1C(=O)OC(C)C2 (racemic) [ALM-28]" measurement_type=pIC50 observed_value=3.31

I'd like to know its pIC50. The compound in question is COc1cccc2c1C(=O)O[C@@H](C)C2 [ALM-13, (3S)-methoxy mellein]
3.09

Please report the recorded pIC50 for CC1Cc2ccc(F)c(O)c2C(=O)O1 (racemic) [ALM-22, Racemic Ortho-Fluoromellein] .
4.01

I'd like to know its pIC50. The compound in question is COC(=O)c1ccc2c(c1O)C(=O)OCC2 [ALM-68]
3.29

* * *

- Tested on: H23
- ASSAY_NAME: MTT assay (anti-proliferative activity)
- Assay type: cell-based
MEASUREMENT_TYPE: pIC50
Kindly note that pIC50 refers to -log10 of the concentration in mol/L and answer with the value alone.

Which pIC50 is reported for this compound? CCCCC/C=C\C/C=C\C/C=C\CCCCCOC(=O)c1ccc2c(c1O)C(=O)OC(C)C2 (racemic) [ALM-43, γ-Linolenyl Ester]
5.68

* * *

- Test system: LNCAP
- ASSAY_NAME: MTT assay (anti-proliferative activity)
- Assay type: cell-based
MEASUREMENT_TYPE: pIC50
Reminder that pIC50 means the negative base-10 logarithm of the concentration expressed in mol/L.

Find the recorded pIC50 belonging to CCCCC/C=C\C/C=C\C/C=C\CCCCCOC(=O)c1ccc2c(c1O)C(=O)OC(C)C2 (racemic) and report it.
4.97

* * *

- System: MCF-7
- ASSAY_NAME: MTT assay (anti-proliferative activity)
- Type: cell-based
- SETUP_CONDITIONS: 96 h continual exposure, read-out: IC 50 MCF-7
Reported IC50 values for a set of molecules
Please state the figure in µM; there is no need to write the unit.

molecule="CC1Cc2ccc(C(=O)OC(C)(C)C)c(O)c2C(=O)O1 (racemic)" observed_value=392
molecule="CCCCC/C=C\\C/C=C\\C/C=C\\CCCCCOC(=O)c1ccc2c(c1O)C(=O)OC(C)C2 (racemic)" observed_value=2.3
molecule="CC(=O)Oc1cccc2c1C(=O)OC(C)C2 (racemic)" observed_value=613

Data request, read-out IC50, for CC/C=C\C/C=C\C/C=C\CCCCCCCC(=O)Oc1c(OC)c(OC)cc2c1C(=O)OC(C)C2 (racemic) [ALM-4, Racemic Kigelin α-Linolenyl Ester]
60.2

Recorded IC50 of CC1Cc2ccc(C(=O)OC3CCCCC3)c(O)c2C(=O)O1 (racemic) , please.
98.6

Sample CCCCC/C=C\C/C=C\C/C=C\CCCCC(=O)Oc1c(OC)c(OC)cc2c1C(=O)OC(C)C2 (racemic) [ALM-5, Racemic Kigelin γ-Linolenyl Ester] — what was its IC50?
20

If you can, please state the reported IC50 value of CCOC(=O)Oc1cccc2c1C(=O)OC(C)C2 (racemic) [ALM-16, Racemic Mellein Ethyl Carbonate] .
296

Entry under review: CCCCC/C=C\C/C=C\C/C=C\CCCCC(=O)Oc1cccc2c1C(=O)OC(C)C2 (racemic) [ALM-20, Racemic Mellein γ-Linolenyl Ester] . Reported IC50?
342

So what does the record say about IC50 for CCCCCCOC(=O)c1ccc2c(c1O)C(=O)OC(C)C2 (racemic) ?
65.3

Suppose we examine the molecule CCCCCCCCCCCCOC(=O)c1ccc2c(c1O)C(=O)OC(C)C2 (racemic) ; what IC50 value has been reported?
192

What does the record list as IC50 for CC1Cc2ccc(C(=O)NCCC(=O)O)c(O)c2C(=O)O1 (racemic) ?
136

Need IC50 of CC1Cc2ccc(C(=O)NCc3ccccc3)c(O)c2C(=O)O1 (racemic) [ALM-44, Benzyl Amide] , thanks.
86.7

For the molecule CCCCCCCCCCCCNC(=O)c1ccc2c(c1O)C(=O)OC(C)C2 (racemic) [ALM-51, Dodecyl Amide] , what IC50 is on record?
12.8
